Target: T1, Human ST2-his (human, UniProt Q01638-2 19-328, limits assumed)
T1 construct: Expressed in CHO-K1; The printed range starts at Met1; also called human ST2 fused with a 6-histidine tag at the C-terminus
T1 sequence: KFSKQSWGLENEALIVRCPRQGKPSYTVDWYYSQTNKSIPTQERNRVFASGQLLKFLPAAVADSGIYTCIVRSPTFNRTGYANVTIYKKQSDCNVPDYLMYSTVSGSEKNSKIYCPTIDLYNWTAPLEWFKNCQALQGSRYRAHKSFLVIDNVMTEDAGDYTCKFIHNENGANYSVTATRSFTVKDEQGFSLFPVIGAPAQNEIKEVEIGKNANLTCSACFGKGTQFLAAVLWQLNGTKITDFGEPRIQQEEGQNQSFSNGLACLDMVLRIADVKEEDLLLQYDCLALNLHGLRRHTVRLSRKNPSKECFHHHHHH
Experiment: SPR Biacore X100, antibody captured on protein A chip, human ST2-his injected, dissociation at pH 5.5
METRIC_NAME: Kd (nM)
# unit: nM | format: bare number

# count of solved cases: 3
[
  {
    "BINDER": "5888-116-H0L1 (antibody, human IgG4 S228P, kappa, V domains shown, Humanized antibody) VH: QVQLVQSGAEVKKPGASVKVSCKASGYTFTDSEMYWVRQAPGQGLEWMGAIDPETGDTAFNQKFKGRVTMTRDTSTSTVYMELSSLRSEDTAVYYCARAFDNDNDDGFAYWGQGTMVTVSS VL: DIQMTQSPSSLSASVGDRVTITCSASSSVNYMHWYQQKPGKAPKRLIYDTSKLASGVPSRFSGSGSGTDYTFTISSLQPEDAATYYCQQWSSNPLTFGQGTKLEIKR",
    "Kd [nM]": 0.474
  },
  {
    "BINDER": "5888-153-H3L1 (antibody, human IgG4 S228P, kappa, V domains shown, Humanized antibody) VH: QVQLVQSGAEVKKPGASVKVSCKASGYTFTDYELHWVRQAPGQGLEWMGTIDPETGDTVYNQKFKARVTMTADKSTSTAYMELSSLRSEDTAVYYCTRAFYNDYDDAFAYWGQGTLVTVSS VL: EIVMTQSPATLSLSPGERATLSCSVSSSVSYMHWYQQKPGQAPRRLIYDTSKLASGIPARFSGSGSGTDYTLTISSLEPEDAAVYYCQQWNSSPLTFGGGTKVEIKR",
    "Kd [nM]": 0.122
  },
  {
    "BINDER": "Control antibody CNTO7160 (antibody, human IgG4 S228P, kappa, V domains shown, Known anti-ST2 control antibody) VH: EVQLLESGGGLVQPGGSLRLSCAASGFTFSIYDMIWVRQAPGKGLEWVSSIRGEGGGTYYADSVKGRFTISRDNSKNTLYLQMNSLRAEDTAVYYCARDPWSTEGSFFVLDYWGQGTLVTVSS VL: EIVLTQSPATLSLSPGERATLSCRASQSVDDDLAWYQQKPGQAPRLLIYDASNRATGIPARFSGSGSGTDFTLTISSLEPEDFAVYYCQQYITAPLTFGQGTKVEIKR",
    "Kd [nM]": 0.395
  }
]

[Q] Name the reported Kd value associated with the binder 5887-41-H1L0 (antibody, human IgG4 S228P, kappa, V domains shown, Humanized antibody) VH: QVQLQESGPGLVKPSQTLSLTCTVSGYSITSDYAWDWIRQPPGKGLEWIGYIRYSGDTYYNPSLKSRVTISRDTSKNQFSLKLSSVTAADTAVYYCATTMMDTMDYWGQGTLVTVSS VL: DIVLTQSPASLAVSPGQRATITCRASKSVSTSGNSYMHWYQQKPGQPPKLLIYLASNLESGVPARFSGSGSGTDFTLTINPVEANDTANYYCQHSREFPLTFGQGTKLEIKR
[A] 0.161

[Q] Name the reported Kd value associated with the binder 5888-379-H1L0 (antibody, human IgG4 S228P, kappa, V domains shown, Humanized antibody) VH: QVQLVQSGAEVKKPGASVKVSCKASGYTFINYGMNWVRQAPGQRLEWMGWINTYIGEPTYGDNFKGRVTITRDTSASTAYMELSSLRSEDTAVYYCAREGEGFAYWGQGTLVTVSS VL: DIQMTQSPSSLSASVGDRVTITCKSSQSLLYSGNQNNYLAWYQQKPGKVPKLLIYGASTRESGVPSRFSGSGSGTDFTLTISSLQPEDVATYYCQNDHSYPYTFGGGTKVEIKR
[A] 1.43

[Q] Name the reported Kd value associated with the binder 5888-153-H3L2 (antibody, human IgG4 S228P, kappa, V domains shown, Humanized antibody) VH: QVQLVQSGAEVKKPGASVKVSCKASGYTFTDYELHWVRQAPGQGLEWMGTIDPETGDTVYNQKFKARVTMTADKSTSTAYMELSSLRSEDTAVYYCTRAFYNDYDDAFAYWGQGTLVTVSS VL: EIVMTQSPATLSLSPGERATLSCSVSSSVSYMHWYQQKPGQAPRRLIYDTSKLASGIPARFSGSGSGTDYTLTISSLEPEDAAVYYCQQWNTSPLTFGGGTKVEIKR
[A] 0.131

[Q] Name the reported Kd value associated with the binder 5888-379-H2L1 (antibody, human IgG4 S228P, kappa, V domains shown, Humanized antibody) VH: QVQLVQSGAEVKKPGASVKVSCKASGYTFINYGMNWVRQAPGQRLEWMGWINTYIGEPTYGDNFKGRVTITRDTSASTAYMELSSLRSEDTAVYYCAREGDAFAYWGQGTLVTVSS VL: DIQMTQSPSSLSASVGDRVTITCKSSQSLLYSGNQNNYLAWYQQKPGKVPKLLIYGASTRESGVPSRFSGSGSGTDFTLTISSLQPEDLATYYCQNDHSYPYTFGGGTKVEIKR
[A] 1.67

[Q] Name the reported Kd value associated with the binder 5888-379-H2L2 (antibody, human IgG4 S228P, kappa, V domains shown, Humanized antibody) VH: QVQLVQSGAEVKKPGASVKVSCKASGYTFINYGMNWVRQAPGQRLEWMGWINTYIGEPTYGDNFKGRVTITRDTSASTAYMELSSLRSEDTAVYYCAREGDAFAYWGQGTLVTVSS VL: DIVMTQSPDSLAVSLGERATINCKSSQSLLYSGNQNNYLAWYQQKPGQPPKLLIYGASTRESGVPDRFSGSGSGTDFTLTISSLQAEDVAVYYCQNDHSYPYTFGGGTKVEIKR
[A] 2.67

[Q] Name the reported Kd value associated with the binder 5888-153-H0L1 (antibody, human IgG4 S228P, kappa, V domains shown, Humanized antibody) VH: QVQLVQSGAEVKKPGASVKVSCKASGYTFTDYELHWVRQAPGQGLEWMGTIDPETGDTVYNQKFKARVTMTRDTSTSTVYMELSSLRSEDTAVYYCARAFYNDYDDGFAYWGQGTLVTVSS VL: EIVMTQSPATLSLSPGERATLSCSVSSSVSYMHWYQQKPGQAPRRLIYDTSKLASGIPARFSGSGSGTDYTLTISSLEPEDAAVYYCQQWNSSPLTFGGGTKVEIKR
[A] 0.0706

[Q] Name the reported Kd value associated with the binder 5886-156-H1L0 (antibody, human IgG4 S228P, kappa, V domains shown, Humanized antibody expressed in CHO-K1, purified by protein A) VH: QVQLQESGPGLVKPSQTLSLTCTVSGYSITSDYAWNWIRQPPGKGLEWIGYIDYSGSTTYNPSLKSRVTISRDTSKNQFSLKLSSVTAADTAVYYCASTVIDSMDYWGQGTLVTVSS VL: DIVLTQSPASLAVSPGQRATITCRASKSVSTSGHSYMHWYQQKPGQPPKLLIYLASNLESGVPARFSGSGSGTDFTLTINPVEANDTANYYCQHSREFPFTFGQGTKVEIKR
[A] 0.276
